These measurements were taken from paper PMC9014415.

# method: Pharmacokinetic studies in male Friesian-Holstein cattle, IV and IM (Ridgeway)
# Type: in vivo
# experimental-conditions: male, Holstein-Friesian cross, bovine, blood, iv, 2 mg/kg, cattle; IV 2 mg/kg; individual animals 1644, 3646, 7643
# Method: 2.7 Pharmacokinetic studies in cattle (see Table 2). Studies conducted at Ridgeway Compound 1 was dosed IM at 5 mg free base/kg (dose volume 2mL/10 kg; dose vehicle 10% N-Methyl-2-Pyrrolidinone (NMP), 40% 2-pyrrolidinone, 30% PEG400, 20% deionized water) or IV at 2.5 mg free base/kg (dose volume 0.4 mL/10 kg; 2.5% NMP, 30% PEG400, 37.5% propylene glycol, 30% water by volume) to male ruminating Holstein-Friesian cross animals (n = 4). […]
measure-name: AUC(0-inf)

compound: CC(C)CS(=O)(=O)N[C@H]1CC[C@H](Nc2nc(N)c(C(=O)c3c(F)cc(CN(C)C)cc3F)s2)CC1 [Compound 2]
result: 2330 ng·h/mL

====

# method: Pharmacokinetic studies in male Friesian-Holstein cattle, IV and IM (Ridgeway)
# Assay type: in vivo
# experimental-conditions: male, Holstein-Friesian cross, bovine, blood, iv, 2.5 mg/kg, cattle; IV 2.5 mg/kg; n = 4; mean ± SD; read-out: half-life (converted)

cpd-smiles: CC(C)CS(=O)(=O)N[C@H]1CC[C@H](Nc2nc(N)c(C(=O)c3c(F)cccc3F)s2)CC1
half-life: ~1.8 h

====

# method: Comparative cattle PK, IM compared to SC (NorthWest Biopharm)
# Format: in vivo
# experimental-conditions: Aberdeen Angus crossbreed and Limousin crossbreed, bovine, blood, 5 mg/kg free base, IM
measure-name: AUC (ng·h/mL)

molecule: CC(C)CS(=O)(=O)N[C@H]1CC[C@H](Nc2nc(N)c(C(=O)c3c(F)cc(CN(C)C)cc3F)s2)CC1 [Compound 2]
measure-name: AUC
value-unit: ng·h/mL
measured-number: 3170

====

// reported solubility kinetic per item
# method: Aqueous kinetic solubility by laser nephelometry
# Assay type: physicochemical
# experimental-conditions: MilliQ water with 2.5% DMSO, range 250-12 µM, read-out: Sol (kinetic solubility)

cpd-smiles: CC(C)CS(=O)(=O)N[C@H]1CC[C@H](Nc2nc(N)c(C(=O)c3c(F)cc(CN4CCC4)cc3F)s2)CC1.Cl
solubility kinetic: > 250 µM
--
cpd-smiles: CNCc1cc(F)c(C(=O)c2sc(N[C@H]3CC[C@H](NS(=O)(=O)CC(C)C)CC3)nc2N)c(F)c1.Cl
solubility kinetic: > 250 µM
--
cpd-smiles: CC(C)CS(=O)(=O)N[C@H]1CC[C@H](Nc2nc(N)c(C(=O)c3c(Cl)cc(CN(C)C)cc3Cl)s2)CC1.Cl
solubility kinetic: > 250 µM
--
cpd-smiles: CC(C)CS(=O)(=O)N[C@H]1CC[C@H](Nc2nc(N)c(C(=O)c3c(F)cc(CN)cc3F)s2)CC1.Cl
solubility kinetic: > 250 µM
--
cpd-smiles: CC(C)CS(=O)(=O)N[C@H]1CC[C@H](Nc2nc(N)c(C(=O)c3c(F)cc(CCN(C)C)cc3F)s2)CC1.Cl
solubility kinetic: > 250 µM
--
cpd-smiles: CC(C)CS(=O)(=O)N[C@H]1CC[C@H](Nc2nc(N)c(C(=O)c3c(F)cc(CN4CCN(C)CC4)cc3F)s2)CC1.Cl
solubility kinetic: > 250 µM
